Assayed target: autotaxin (Homo sapiens, UniProt Q13822)
Construct: purchased Cayman 10803
Protocol notes: Autotaxin inhibitor screening assay (choline release from LPC)
Assay type: biochemical
Assay conditions: inhibition of autotaxin enzyme activity at 1 μM compound; 100 μM 14:0 LPC; read-out: Inhibition

| Molecule | Assayed target | inhibition at 1 µM |
| --- | --- | --- |
| Cc1oc2ccc(C3=CCN(C(=O)CN4C(=O)CSC4=S)CC3)cc2c1N(C)C(=O)OCc1cc(C(F)(F)F)cc(C(F)(F)F)c1 | autotaxin (Homo sapiens, UniProt Q13822) | > 80% |
| CN(c1nc(-c2ccc(F)cc2)c(C#N)s1)C1CCc2ccc(N3CCN(CC(=O)N4CC(O)C4)CC3)cc21 (stereo not drawn) | autotaxin (Homo sapiens, UniProt Q13822) | < 50% |
| CN(C(=O)OCc1cc(C(F)(F)F)cc(C(F)(F)F)c1)c1noc2ccc(C3=CCN(C(=O)CN4C(=O)CSC4=S)CC3)cc12 | autotaxin (Homo sapiens, UniProt Q13822) | 50 to 80% |
| CN(C(=O)OCc1cc(Cl)cc(Cl)c1)C1CCc2ccc(C3=CCN(C(=O)CN4C(=O)CCC4=O)CC3)cc21 (stereo not drawn) | autotaxin (Homo sapiens, UniProt Q13822) | < 50% |
| CCN(C(=O)OCc1cc(C(F)(F)F)cc(C(F)(F)F)c1)c1c(C)oc2ccc(C3=CCN(C(=O)CN4C(=O)CSC4=S)CC3)cc12 | autotaxin (Homo sapiens, UniProt Q13822) | > 80% |
| CN(C(=O)OCc1cc(Cl)cc(C(F)(F)F)c1)C1CCc2ccc(C3=CCN(C(=O)CN4C(=O)CSC4=S)CC3)cc21 (stereo not drawn) | autotaxin (Homo sapiens, UniProt Q13822) | > 80% |

FYI, the data here is from patent US20200157088A1.
